test system: NCI-H2081; test: cells; type: functional, cell-based, Homo sapiens; conditions: Homo sapiens, NCI-H2081;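 also: growth inhibition of human NCI-H2081 cells, read out with a cell viability assay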
Description: SANGER: Inhibition of human NCI-H2081 cell growth in a cell viability assay.
pIC50: −log10 of the molar value.

molecule: Cc1ccc(C(=O)Nc2ccc(CN3CCN(C)CC3)c(C(F)(F)F)c2)cc1C#Cc1cnc2cccnn12 [PONATINIB]
pIC50: < 6.29

molecule: COc1cc(N2CCC(N3CCN(C)CC3)CC2)ccc1Nc1ncc(Cl)c(Nc2ccccc2S(=O)(=O)C(C)C)n1 [TAE-684]
pIC50: < 5.70

molecule: C=CC(=O)N1CCCC(Nc2nc(Nc3ccc(N(C)C(=O)CC)cc3)nc3[nH]cnc23)C1 (stereo not given)
pIC50: < 4.99

molecule: Cc1cc(N2CCOCC2)cc2[nH]c(-c3c(NC[C@@H](O)c4cccc(Cl)c4)cc[nH]c3=O)nc12
pIC50: < 5.29

molecule: Cc1ccc(NC(=O)c2ccc(CN3CCN(C)CC3)cc2)cc1Nc1nccc(-c2cccnc2)n1 [IMATINIB]
pIC50: < 5.70

The reported numbers originate from ChEMBL document CHEMBL1201861.
